RUN_DESCRIPTION: Lipophilicity, logD of compound at 7.4 by the LC/MS based microscale shake flask method
Assay type: physicochemical
CONDITION_NOTES: octanol/water, pH 7.4
logD listing for selected compounds.
The reply should be a number, written without any unit.

Record excerpt, results attached:
> print(dat)
                               input.smiles  recorded.endpoint  val
1  CC(C)C(=O)Nc1cc(-c2ccnc(N3CCn4c(cc5c4CC(C)(C)C5)C3=O)c2CO)cn(C)c1=O               logD  3.2
2  Cn1cc(-c2ccnc(-n3ncc4cc(C(C)(C)C)cc(F)c4c3=O)c2CO)cc(NC(=O)C2CC2)c1=O               logD  2.5
3  Cn1cc(-c2ccnc(-n3ncc4cc(C(C)(C)C)cc(F)c4c3=O)c2CO)cc(NC(=O)[C@H]2C[C@@H]2F)c1=O               logD    3
4  Cn1cc(-c2ccnc(N3CCn4c(cc5c4CC(C)(C)C5)C3=O)c2CO)cc(NC(=O)CC2CC2)c1=O               logD  3.4
5  Cn1nc(-c2ccnc(-n3ncc4cc(C(C)(C)C)cc(F)c4c3=O)c2CO)cc(NC(=O)[C@@H]2C[C@@H]2F)c1=O               logD  1.7
6  Cn1cc(-c2ccnc(N3CCn4c(cc5c4CC(C)(C)C5)C3=O)c2CO)cc(NC(=O)C2(F)CC2)c1=O               logD  2.5

// logD value for "Cn1cc(-c2ccnc(N3CCn4c(cc5c4CC(C)(C)C5)C3=O)c2CO)cc(NC(=O)CN2CCOCC2)c1=O" : 2.3

logD for "Cn1cc(-c2cc(F)cc(-n3ncc4cc(C(C)(C)C)cc(F)c4c3=O)c2CO)cc(NC(=O)[C@H]2C[C@H]2F)c1=O" is 2

###

RUN_DESCRIPTION: Clearance in Sprague-Dawley rat at 0.2 mg/kg, iv measured upto 8 hrs by LC-MS/MS analysis
Format: ADME, organism-based
CONDITION_NOTES: in vivo
RECORDED_ENDPOINT: clearance (mL/min/kg)
Unit mL/min/kg implied. Number only.

> print(dat)
                                   compound  val
1  C[C@H]1CN(C2COC2)CCN1c1ccc(Nc2cc(-c3ccnc(N4CCn5c(cc6c5CC(C)(C)C6)C4=O)c3CO)cn(C)c2=O)nc1 [FENEBRUTINIB]   22

Looking up "Cn1cc(-c2ccnc(-n3ncc4cc(C(C)(C)C)cc(F)c4c3=O)c2CO)cc(NC(=O)[C@@H]2C[C@@H]2F)c1=O" , I see its clearance listed as 15

###

RUN_DESCRIPTION: Metabolic stability in dog Hepatocyte assessed as intrinsic clearance at 1 uM measured upto 60 mins by LC-MS/MS analysis
Assay type: ADME, cell-based, Canis lupus familiaris
CONDITION_NOTES: hepatocytes, read-out: CLH
RECORDED_ENDPOINT: CLint scaled at 1 µM

> print(dat)
                               input.smiles             val
1  Cn1cc(-c2ccnc(-n3ncc4cc(C(C)(C)C)cc(F)c4c3=O)c2CO)cc(NC(=O)[C@@H]2C[C@@H]2F)c1=O  < 21 mL/min/kg

Let's switch to this compound now.
get_value(item= "C[C@H]1CN(C2COC2)CCN1c1ccc(Nc2cc(-c3ccnc(N4CCn5c(cc6c5CC(C)(C)C6)C4=O)c3CO)cn(C)c2=O)nc1" , readout=CLint scaled at 1 µM) returns < 21 mL/min/kg

###

RUN_DESCRIPTION: Lipophilicity, logD of compound at 7.4 by the LC/MS based microscale shake flask method
Assay type: physicochemical
CONDITION_NOTES: octanol/water, pH 7.4
molecules and their reported logD
Please reply with the number alone, leaving off any unit.

Worked set:
> print(dat)
                               input.smiles  recorded.endpoint  val
1  Cn1cc(-c2ccnc(-n3ncc4cc(C(C)(C)C)cc(F)c4c3=O)c2CO)cc(NC(=O)[C@@H]2C[C@@H]2F)c1=O               logD  1.6
2  Cn1cc(-c2ccnc(N3CCn4c(cc5c4CC(C)(C)C5)C3=O)c2CO)cc(NC(=O)C2CC2)c1=O               logD    3
3  Cn1cc(-c2ccnc(-n3ncc4cc(C(C)(C)C)cc(F)c4c3=O)c2CO)nc(NC(=O)[C@@H]2C[C@@H]2F)c1=O               logD  1.3
4  Cn1cc(-c2ccnc(-n3ncc4cc(C(C)(C)C)cc(F)c4c3=O)c2CO)cc(NC(=O)[C@@H]2C[C@H]2F)c1=O               logD  2.5
5  CCC(=O)Nc1cc(-c2ccnc(N3CCn4c(cc5c4CC(C)(C)C5)C3=O)c2CO)cn(C)c1=O               logD  2.5

Reported logD of "Cn1cc(-c2ccnc(-n3ncc4cc(C(C)(C)C)cc(F)c4c3=O)c2CO)cc(NC(=O)[C@H]2C[C@H]2F)c1=O" : 2

logD measured on "Cn1cc(-c2ccnc(N3CCn4c(cc5c4CC(C)(C)C5)C3=O)c2CO)cc(NC(=O)c2cccnc2)c1=O" = 2

Lab note: measured logD of "Cn1cc(-c2ccnc(N3CCn4c(cc5c4CC(C)(C)C5)C3=O)c2CO)cc(NC(=O)C2COC2)c1=O" was 2.2

###

RUN_DESCRIPTION: Metabolic stability in rat Hepatocyte assessed as compound hydrolysis at 5 uM incubated for 3 hrs by LC-MS/MS analysis
Type: ADME, cell-based
CONDITION_NOTES: hepatocytes, read-out: Drug degradation
RECORDED_ENDPOINT: metabolised at 3 h, 5 µM

Recorded metabolised at 3 h, 5 µM (molecule "Cn1cc(-c2ccnc(-n3ncc4cc(C(C)(C)C)cc(F)c4c3=O)c2CO)cc(NC(=O)[C@@H]2C[C@@H]2F)c1=O" ): ≤ 1%

###

Measured logD, listed per entry.
RUN_DESCRIPTION: Lipophilicity, logD of compound at 7.4 by the LC/MS based microscale shake flask method
Type: physicochemical
CONDITION_NOTES: octanol/water, pH 7.4
Format: numeric value only, no unit, no commentary.

> print(dat)
                                   molecule  recorded.endpoint  val
1  CC(=O)Nc1cc(-c2ccnc(N3CCn4c(cc5c4CC(C)(C)C5)C3=O)c2CO)cn(C)c1=O               logD  2.1
2  C[C@H]1CN(C2COC2)CCN1c1ccc(Nc2cc(-c3ccnc(N4CCn5c(cc6c5CC(C)(C)C6)C4=O)c3CO)cn(C)c2=O)nc1 [FENEBRUTINIB]               logD  1.6

Looking up "Cn1cc(-c2ccnc(N3CCn4c(cc5c4CC(C)(C)C5)C3=O)c2CO)cc(NC(=O)[C@H]2C[C@H]2F)c1=O" , I found its logD recorded as 2.3

###

Quick reference for logD among some compounds
RUN_DESCRIPTION: Lipophilicity, logD of compound at 7.4 by the LC/MS based microscale shake flask method
Type: physicochemical
CONDITION_NOTES: octanol/water, pH 7.4
Format: numeric value only, no unit, no commentary.

// solved cases for logD follow
> print(dat)
                               input.smiles  val
1  Cn1cc(-c2ccnc(N3CCn4c(cc5c4CC(C)(C)C5)C3=O)c2CO)cc(NC(=O)[C@@H]2C[C@@H]2F)c1=O  2.5
2  Cn1cc(-c2ccnc(-n3ncc4c5c(sc4c3=O)CCCC5)c2CO)cc(NC(=O)C2CC2)c1=O  2.1

Measured logD of "Cn1cc(-c2ccnc(N3CCn4c(cc5c4CC(C)(C)C5)C3=O)c2CO)cc(NC(=O)[C@@H]2CCCO2)c1=O" : 2.1

Briefly, logD measured for "CCCC(=O)Nc1cc(-c2ccnc(N3CCn4c(cc5c4CC(C)(C)C5)C3=O)c2CO)cn(C)c1=O" : 2.6

The recorded logD for entry "Cn1cc(-c2ccnc(N3CCn4c(cc5c4CC(C)(C)C5)C3=O)c2CO)cc(NC(=O)C2(O)CC2)c1=O" equals 1.8
